Taken from patent US20240270821A1.

target-entity: hGIPR (Homo sapiens)
Sequence (P48546 22-466): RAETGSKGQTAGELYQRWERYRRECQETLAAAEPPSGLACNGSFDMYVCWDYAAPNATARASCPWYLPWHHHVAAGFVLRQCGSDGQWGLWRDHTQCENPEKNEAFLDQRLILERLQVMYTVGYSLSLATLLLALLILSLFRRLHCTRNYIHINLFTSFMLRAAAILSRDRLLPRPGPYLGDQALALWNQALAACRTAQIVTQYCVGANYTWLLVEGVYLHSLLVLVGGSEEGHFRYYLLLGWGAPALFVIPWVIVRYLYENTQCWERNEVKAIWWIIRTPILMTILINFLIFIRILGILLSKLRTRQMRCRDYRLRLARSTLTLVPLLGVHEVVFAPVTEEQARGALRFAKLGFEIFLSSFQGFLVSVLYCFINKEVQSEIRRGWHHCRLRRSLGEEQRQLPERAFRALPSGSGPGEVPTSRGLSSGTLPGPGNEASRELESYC
method: Functional cAMP activation in the presence of 0.1% casein (no HSA);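 also: intracellular cAMP rise after 30 min at 37 °C read by HTRF against a standard curve, scaled between buffer alone (0%) and top control ligand concentration (100%), four-parameter fit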
Format: cell-based
settings: in the presence of 0.1% casein (no HSA); geometric mean; read-out: Relative cAMP EC50, hGIPR
Starred links: 1 amine or outer side, 2 acyl side, 3 side chain; linkers in the order of their positions; H or OH if unused. Non-standard residues stand in square brackets, D forms with d. Groups on a side chain read outwards from the residue. No end group written: not given here. *: point of attachment. C20 diacid = O=C(O)CCCCCCCCCCCCCCCCCCC(=O)*; C18 diacid = O=C(O)CCCCCCCCCCCCCCCCC(=O)*; αMePhe(2-F) = C[C@](N)(Cc1ccccc1F)C(=O)O; γGlu = O=C(O)[C@H](CCC(=O)[*:2])N[*:1]; αMe4Pal = C[C@](N)(Cc1ccncc1)C(=O)O; αMeY = C[C@](N)(Cc1ccc(O)cc1)C(=O)O; 4Pal = N[C@@H](Cc1ccncc1)C(=O)O; αMeL = CC(C)C[C@](C)(N)C(=O)O; Orn = NCCC[C@H](N)C(=O)O; AEEA = NCCOCCOCC(=O)O; Aib = CC(C)(N)C(=O)O
readout-kind: EC50
Answers without a unit are incomplete; give the number and then its unit.

EC50 lookup needed for H-Y[Aib]QGT[αMePhe(2-F)]TSDYSILLDKIAAK([AEEA-γGlu-C20 diacid])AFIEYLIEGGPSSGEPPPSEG-NH2 [Example 296] , thanks.
0.0806 nM

State the recorded EC50 for this entry: H-Y[Aib]QGTFTSDFS[Orn][αMeL]LDKK([γGlu-AEEA-γGlu-C18 diacid])AQ[Aib]AFIEYLLE[Aib]GPSSGAPPPSGT-NH2 [Example 276]
0.0708 nM

Bench note: what EC50 did Y[Aib]QGTFTSD[4Pal]SQ[αMeL]LD[Orn]K([dE-γGlu-C18 diacid])AQ[αMe4Pal]QFIE[αMeY]LIA[Aib]GPSSGEPPPSGSEE-NH2 [Example 1106] show?
0.0312 nM

Entry H-Y[Aib]QGTFTSD[4Pal]SK[αMeL]LDKK([AEEA-γGlu-C18 diacid])AQ[Aib]AFIEYLIE[Aib]GPSSGAPPPSGS-NH2 [Example 801] has what EC50?
0.147 nM

Any idea what EC50 was measured for H-Y[Aib]QGTFTSDFSK[αMeL]LDKK([AEEA-γGlu-C18 diacid])AQ[Aib]AFIEYLLE[Aib]GPSSGEPPPSEG-NH2 [Example 46] ?
0.0947 nM

Any idea what its EC50 is? The substance is H-Y[Aib]QGT[αMePhe(2-F)]TSDYSILLDKQAAK([AEEA-AEEA-γGlu-C20 diacid])EFIEYLIEGGPSSGEPPPSEG-NH2 [Example 348]
0.127 nM

Given the entry H-Y[Aib]QGTFTSDFS[Orn][αMeL]LDKK([AEEA-γGlu-C18 diacid])AQ[Aib]AFIEYLLEGGHSSGEPPPGGS-NH2 [Example 164] , report its measured EC50.
0.302 nM
